Tested on: HCC-827
assay overview: relative viability (nuclei count vs DMSO), 5 days (fraction); higher = more cells survive
conditions: first compound 158.11 µM
Rule: measured relative viability below 0.5 gets 1.0; anything equal to or greater than 0.5 gets 0.0.

Qu. Problem: For the compound O=C(O)CCCCC(CCSCc1ccccc1)SCc1ccccc1 (stereo not given) [CPI-613] + C[C@@H](Oc1cc(-c2cnn(C3CCNCC3)c2)cnc1N)c1c(Cl)ccc(F)c1Cl [Crizotinib] (partner 1 µM) , is relative viability under 0.5?
Ans. 1.0

Qu. Find out if reported relative viability for O=C(O)CCCCC(CCSCc1ccccc1)SCc1ccccc1 (stereo not given) [CPI-613] + CC(=O)Nc1cccc(-n2c(=O)n(C3CC3)c(=O)c3c(Nc4ccc(I)cc4F)n(C)c(=O)c(C)c32)c1 [Trametinib] (partner 0.02 µM) is less than 0.5
Ans. 0.0

Qu. Lab log: compare recorded relative viability with 0.5; is it strictly lower for O=C(O)CCCCC(CCSCc1ccccc1)SCc1ccccc1 (stereo not given) [CPI-613] + N=C(N)NC(=N)NCCc1ccccc1 [Phenformin] (partner 250 µM) ?
Ans. 1.0

Qu. Would you kindly verify if relative viability of O=C(O)CCCCC(CCSCc1ccccc1)SCc1ccccc1 (stereo not given) [CPI-613] + O=C(c1cc(Cc2n[nH]c(=O)c3ccccc23)ccc1F)N1CCN(C(=O)C2CC2)CC1 [Olaparib] (partner 8 µM) is strictly less than 0.5?
Ans. 0.0

Qu. API: query returns whether the compound falls strictly under 0.5 in relative viability. Query: O=C(O)CCCCC(CCSCc1ccccc1)SCc1ccccc1 (stereo not given) [CPI-613] + Cc1nc(NC(=O)N2CCC[C@H]2C(N)=O)sc1-c1ccnc(C(C)(C)C(F)(F)F)c1 [Alpelisib] (partner 2 µM)
Ans. 1.0

---

Test system: NCI-H1563
assay overview: relative viability (nuclei count vs DMSO), 5 days (fraction); higher = more cells survive
conditions: first compound 0.005 µM
endpoint label: relative viability
Reply briefly: the number, and no unit.

Note to self: relative viability recorded for Nc1ccn([C@@H]2O[C@H](CO)[C@@H](O)[C@@H]2O)c(=O)n1 [Cytarabine] + C[C@]1(O)C[C@@H](c2nc(-c3ccc4ccc(-c5ccccc5)nc4c3)c3c(N)nccn32)C1 [Linsitinib] (partner 1 µM) was 1.14

The measured relative viability associated with Nc1ccn([C@@H]2O[C@H](CO)[C@@H](O)[C@@H]2O)c(=O)n1 [Cytarabine] + Cc1nc(NC(=O)N2CCC[C@H]2C(N)=O)sc1-c1ccnc(C(C)(C)C(F)(F)F)c1 [Alpelisib] (partner 2 µM) reads 0.938

Record summary for Nc1ccn([C@@H]2O[C@H](CO)[C@@H](O)[C@@H]2O)c(=O)n1 [Cytarabine] + COc1cccc2cc(-c3nc([C@H]4CC[C@H](C(=O)O)CC4)n4ncnc(N)c34)[nH]c12 [OSI-027] (partner 0.5 µM) : reported relative viability = 0.691

So for Nc1ccn([C@@H]2O[C@H](CO)[C@@H](O)[C@@H]2O)c(=O)n1 [Cytarabine] + COc1cc2c(Oc3ccc(NC(=O)C4(C(=O)Nc5ccc(F)cc5)CC4)cc3F)ccnc2cc1OCCCN1CCOCC1 [Foretinib] (partner 0.25 µM) , the logged relative viability turned out to be 0.869

COc1cc2nccc(Oc3ccc(NC(=O)Nc4cc(C)on4)c(Cl)c3)c2cc1OC [Tivozanib] + C[C@]1(O)C[C@@H](c2nc(-c3ccc4ccc(-c5ccccc5)nc4c3)c3c(N)nccn32)C1 [Linsitinib] (partner 1 µM) has a reported relative viability of 1.19

# relative viability (compound: Nc1ccn([C@@H]2O[C@H](CO)[C@@H](O)[C@@H]2O)c(=O)n1 [Cytarabine] + Nc1nc2[nH]cc(CCc3ccc(C(=O)N[C@@H](CCC(=O)O)C(=O)O)cc3)c2c(=O)[nH]1 [Pemetrexed] (partner 0.2 µM) ) is 0.823

So for COc1cc2nccc(Oc3ccc(NC(=O)Nc4cc(C)on4)c(Cl)c3)c2cc1OC [Tivozanib] + Cc1nc(Nc2ncc(C(=O)Nc3c(C)cccc3Cl)s2)cc(N2CCN(CCO)CC2)n1 [Dasatinib] (partner 0.075 µM) , the logged relative viability turned out to be 0.455
